Data credit: patent US20100172870A1

test system: genotype 1b replicon (R1b); experiment: HCV subgenomic replicon R1b luciferase assay; type: cell-based, hepatitis C virus (HCV); details: Huh7 cells, 10 μM, 72 h (FIG. 4B)
observable: effect on luciferase activity at 10 μM

structure=C/C(=C\c1ccc(C(=O)O)cc1)c1ccc2c(c1)C(C)(C)CCC2(C)C result="slightly increased"
structure=CC(C)=CCCC(C)=CCCC(C)=CCO result="slightly increased"
